Cited source: PubChem BioAssay (NCI)

system: MOLT-4 leukemia; test: NCI-60 one-dose screen, 48 h; conditions: 10 µM unless noted
This is part of a sample that, as a whole, favours compounds with a hit. Of some 83,000 tested, about 20% had one in any assay. The source made the active and inactive calls. Rule for the calls: active = growth percent below 10; inactive = the rest.
Outcomes you can answer with include only these: active, inactive

Examples with answers:
>  <COMPOUND>
CCOC(=O)C(Cc1ccccc1)n1c(O)c(/C=N/c2ncc(Cc3ccc(Cl)cc3Cl)s2)sc1=S (stereo not given)

>  <TESTED SYSTEM>
MOLT-4 leukemia

>  <ASSIGNED LABEL>
active

$$$$
>  <COMPOUND>
C=C1C(=O)O[C@H]2[C@H]1CC/C(COC(=O)NCc1cccc(OC)c1)=C\CC[C@@]1(C)O[C@@H]21

>  <TESTED SYSTEM>
MOLT-4 leukemia

>  <ASSIGNED LABEL>
active

$$$$

Status in this test for "N/C(=C\C(=O)n1nc(-c2ccccc2)cc1N)c1ccccc1" ?
inactive

Status in this test for "C=CCCCCOc1cccc(/C=C2\N=C3SCCCN3C2=O)c1" ?
inactive

---

system: T-47D breast; assay: NCI-60 one-dose screen, 48 h; details: 10 µM unless noted
This is part of a sample that, as a whole, favours compounds with a hit. Of some 83,000 tested, about 20% had one in any assay. Calls of active or inactive are those of the source. How the source made its calls: active means growth percent below 10; inactive means the rest.
Outcomes you can answer with include only these: active, inactive

Examples with answers:
>  <COMPOUND>
Oc1c(C(Nc2ccccc2Br)c2ccccc2)ccc2cccnc12 (stereo not drawn)

>  <ASSIGNED LABEL>
inactive

$$$$
>  <COMPOUND>
C=C1C(=O)O[C@H]2[C@H]1CC/C(COC(=O)NCc1cccc(OC)c1)=C\CC[C@@]1(C)O[C@@H]21

>  <ASSIGNED LABEL>
inactive

$$$$
>  <COMPOUND>
CCCCOc1nc2ccccc2cc1/C=C/c1cc(/C=C/c2cc3ccccc3nc2OCCCC)n(-c2ccccc2)n1

>  <ASSIGNED LABEL>
inactive

$$$$
>  <COMPOUND>
CN1C(=O)N(C)C2C1NN=c1s/c(=C\c3ccsc3)c(=O)n12 (stereo not drawn)

>  <ASSIGNED LABEL>
inactive

$$$$

Status in this test for "C[C@H](NC(=O)c1snnc1C1CC1)c1c(F)cccc1Cl" ?
inactive

Status in this test for CCOC(=O)C1C(=O)C=C(c2cc(OC)c(OC)c(OC)c2)CC1c1sc(N(C)Cc2ccccc2)nc1Cl (stereo not drawn) ?
inactive

Status in this test for "COC(=O)[C@@H](Cc1c[nH]c2ccccc12)NC(=O)/C=C/c1ccccc1" ?
inactive

Status in this test for "O=C(/C=C/c1ccccc1)c1c[nH]c2ccccc2c1=O" ?
inactive

Status in this test for "Oc1ccccc1-c1nnc(COc2ccc(Cl)cc2Cl)o1" ?
inactive

Status in this test for "CN(C)CC(=O)c1ccc2cc(Br)c3ccccc3c2c1" ?
inactive

---

tested on: HCC-2998 colon; test: NCI-60 one-dose screen, 48 h (100 = growth as untreated, 0 = no growth, -100 = all killed); conditions: 10 µM unless noted
Compounds without any hit were thinned out: in the full panel of roughly 83,000, 20% have a hit. Active and inactive are the calls of the source. The calls were made as follows: active = growth percent below 10; inactive = the rest.
REPORTED PROPERTY: growth

Known growth results, listed for orientation:
>  <COMPOUND>
C#C[C@]1(O)CC[C@H]2[C@@H]3CC=C4c5sc(-c6cccc(Br)c6)nc5CC[C@]4(C)[C@H]3CC[C@@]21C

>  <growth>
85.1% (inactive)

$$$$
>  <COMPOUND>
CN1C(=O)C(C2=NNC(c3ccccc3C(=O)O)C2)C(=O)N(C)C1=O (stereo not given)

>  <growth>
117% (inactive)

$$$$
>  <COMPOUND>
CCCCCCCCCCCCNC(=O)N[C@H](C(=O)N[C@H]1/C=C/OCCNC(=O)/C=C/[C@H](C(C)C)NC1=O)C(C)C

>  <growth>
90.4% (inactive)

$$$$

Reported growth ( "COc1cccc(-c2cc(-c3cccs3)c(C#N)c(=O)[nH]2)c1" ) = 125% (inactive)

Reported growth ( "CCCCCCCC/C=C\CCCCCCCC(=O)OCCCCCC" ) = 107% (inactive)

Reported growth ( "COc1ccccc1CNCCCN1C(=O)c2ccc3c4c(ccc(c24)C1=O)C(=O)N(CCCNCCCN)C3=O" ) = -5.58% (active)
